tested on: S. aureus DSM 20231; experiment: fitness (endpoint OD595 vs no drug) (fraction); higher = more growth; settings: first compound 1.5 µg/mL; partner 0.25 µg/mL
readout: fitness

O=C(N[C@H](CO)[C@H](O)c1ccc([N+](=O)[O-])cc1)C(Cl)Cl [Chloramphenicol] + CC1=C\[C@@H](O)CC(=O)Cc2nc(co2)C(=O)N2CCC=C2C(=O)O[C@H](C(C)C)[C@H](C)/C=C/C(=O)NC\C=C\1: 0.609
N[C@@H]1CONC1=O [Cycloserine D] + COc1cc(Cc2cnc(N)nc2N)cc(OC)c1OC [Trimethoprim]: 0.569
N[C@@H]1CONC1=O [Cycloserine D] + CC(=O)NC[C@H]1CN(c2ccc(N3CCOCC3)c(F)c2)C(=O)O1 [Linezolid]: 0.537
N[C@@H]1CONC1=O [Cycloserine D] + CO/N=C(\C(=O)N[C@@H]1C(=O)N2C(C(=O)[O-])=C(C[N+]3(C)CCCC3)CS[C@H]12)c1csc(N)n1 [Cefepime]: 0.952

====

system: B. subtilis 168; experiment: Bliss interaction score (quartile over a dose matrix) (fitness difference); higher = more antagonism (negative = synergy)
readout: Bliss interaction score

CC(=O)OC[C@H]1O[C@@H]([S-])[C@H](OC(C)=O)[C@@H](OC(C)=O)[C@@H]1OC(C)=O.CCP(CC)CC.[Au+] [Auranofin] + C[C@H]1COc2c(N3CCN(C)CC3)c(F)cc3c(=O)c(C(=O)O)cn1c23 [Levofloxacin]: 0.044
CC(=O)O[C@H]1C[C@@]2(C)[C@@H](C[C@@H](O)[C@H]3[C@@]4(C)CC[C@@H](O)[C@@H](C)[C@@H]4CC[C@@]32C)/C1=C(\CCC=C(C)C)C(=O)O [Fusidic acid] + O=C1CN(/N=C/c2ccc([N+](=O)[O-])o2)C(=O)N1 [Nitrofurantoin]: -0.0345

====

test system: B. subtilis 168; experiment: fitness (endpoint OD595 vs no drug) (fraction); higher = more growth; conditions: first compound 0.25 µg/mL; partner 2.5 µg/mL
readout: fitness

CCC[C@@H]1C[C@@H](C(=O)N[C@@H]([C@H]2O[C@H](SC)[C@H](O)[C@@H](O)[C@H]2O)[C@H](C)Cl)N(C)C1 [Clindamycin] + COc1cccc2c1C(=O)c1c(O)c3c(c(O)c1C2=O)C[C@@](O)(C(=O)CO)C[C@@H]3O[C@H]1C[C@H](N)[C@H](O)[C@H](C)O1 [Doxorubicin]: 0.214
CCC[C@@H]1C[C@@H](C(=O)N[C@@H]([C@H]2O[C@H](SC)[C@H](O)[C@@H](O)[C@H]2O)[C@H](C)Cl)N(C)C1 [Clindamycin] + C[n+]1ccc(-c2cc[n+](C)cc2)cc1 [Paraquat]: 0.352
N[C@@H]1CONC1=O [Cycloserine D] + C[n+]1ccc(-c2cc[n+](C)cc2)cc1 [Paraquat]: 0.905
N[C@@H]1CONC1=O [Cycloserine D] + Cc1ncc([N+](=O)[O-])n1CCO [Metronidazole]: 0.868
CCC[C@@H]1C[C@@H](C(=O)N[C@@H]([C@H]2O[C@H](SC)[C@H](O)[C@@H](O)[C@H]2O)[C@H](C)Cl)N(C)C1 [Clindamycin] + CN1C2=CC=CC=C2N=C3C1=CC=CC3=O [Pyocyanin]: 0.319
N[C@@H]1CONC1=O [Cycloserine D] + COc1cccc2c1C(=O)c1c(O)c3c(c(O)c1C2=O)C[C@@](O)(C(=O)CO)C[C@@H]3O[C@H]1C[C@H](N)[C@H](O)[C@H](C)O1 [Doxorubicin]: 0.704

====

tested on: S. aureus Newman; assay: Bliss interaction score (quartile over a dose matrix) (fitness difference); higher = more antagonism (negative = synergy)
readout: Bliss interaction score

CC(=O)O[C@H]1C[C@@]2(C)[C@@H](C[C@@H](O)[C@H]3[C@@]4(C)CC[C@@H](O)[C@@H](C)[C@@H]4CC[C@@]32C)/C1=C(\CCC=C(C)C)C(=O)O [Fusidic acid] + O=C1CN(/N=C/c2ccc([N+](=O)[O-])o2)C(=O)N1 [Nitrofurantoin]: -0.0292
O=C(N[C@H](CO)[C@H](O)c1ccc([N+](=O)[O-])cc1)C(Cl)Cl [Chloramphenicol] + CO[C@@H]1[C@@H](OC(N)=O)[C@@H](O)[C@H](Oc2ccc3c(O)c(NC(=O)c4ccc(O)c(CC=C(C)C)c4)c(=O)oc3c2C)OC1(C)C [Novobiocin]: 0.0758
O=C1CN(/N=C/c2ccc([N+](=O)[O-])o2)C(=O)N1 [Nitrofurantoin] + Oc1cc(Cl)ccc1Oc1ccc(Cl)cc1Cl [Triclosan]: 0.0328
CCC[C@@H]1C[C@@H](C(=O)N[C@@H]([C@H]2O[C@H](SC)[C@H](O)[C@@H](O)[C@H]2O)[C@@H](C)O)N(C)C1 [Lincomycin] + CC[C@H]1OC(=O)[C@H](C)C(=O)[C@H](C)[C@@H](O[C@@H]2O[C@H](C)C[C@H](N(C)C)[C@H]2O)[C@](C)(OC)C[C@@H](C)C(=O)[C@H](C)[C@H]2N(CCCCn3cnc(-c4cccnc4)c3)C(=O)O[C@]12C [Telithromycin]: -0.0488

====

system: B. subtilis 168; experiment: Bliss interaction score (quartile over a dose matrix) (fitness difference); higher = more antagonism (negative = synergy)
readout: Bliss interaction score

O=C(N[C@H](CO)[C@H](O)c1ccc([N+](=O)[O-])cc1)C(Cl)Cl [Chloramphenicol] + O=C(O)[C@H]1/C(=C/CO)O[C@@H]2CC(=O)N21 [Clavulanic]: 0.0981
O=C(N[C@H](CO)[C@H](O)c1ccc([N+](=O)[O-])cc1)C(Cl)Cl [Chloramphenicol] + CC[C@H]1OC(=O)[C@H](C)[C@@H](O[C@H]2C[C@@](C)(OC)[C@@H](O)[C@H](C)O2)[C@H](C)[C@@H](O[C@@H]2O[C@H](C)C[C@H](N(C)C)[C@H]2O)[C@](C)(OC)C[C@@H](C)C(=O)[C@H](C)[C@@H](O)[C@]1(C)O [Clarithromycin]: -0.0459

====

test system: S. pneumoniae D39V; assay: Bliss interaction score (quartile over a dose matrix) (fitness difference); higher = more antagonism (negative = synergy)
readout: Bliss interaction score

CCC[C@@H]1C[C@@H](C(=O)N[C@@H]([C@H]2O[C@H](SC)[C@H](O)[C@@H](O)[C@H]2O)[C@@H](C)O)N(C)C1 [Lincomycin] + CO[C@@H]1[C@@H](OC(N)=O)[C@@H](O)[C@H](Oc2ccc3c(O)c(NC(=O)c4ccc(O)c(CC=C(C)C)c4)c(=O)oc3c2C)OC1(C)C [Novobiocin]: -0.0884
C[C@@H](O)[C@H]1C(=O)N2C(C(=O)O)=C(SCCNC=N)C[C@H]12 [Imipenem] + C[n+]1ccc(-c2cc[n+](C)cc2)cc1 [Paraquat]: 0.0638
O=C(N[C@H](CO)[C@H](O)c1ccc([N+](=O)[O-])cc1)C(Cl)Cl [Chloramphenicol] + CC(=O)NC[C@H]1CN(c2ccc(N3CCOCC3)c(F)c2)C(=O)O1 [Linezolid]: 0.0462
COc1c(N2C[C@@H]3CCCN[C@@H]3C2)c(F)cc2c(=O)c(C(=O)O)cn(C3CC3)c12 [Moxifloxacin] + CN(C)c1cc(NC(=O)CNC(C)(C)C)c(O)c2c1C[C@H]1C[C@H]3[C@H](N(C)C)C(O)=C(C(N)=O)C(=O)[C@@]3(O)C(O)=C1C2=O [Tigecycline]: 0.0824

====

system: B. subtilis 168; assay: Bliss interaction score (quartile over a dose matrix) (fitness difference); higher = more antagonism (negative = synergy)
readout: Bliss interaction score

CCC[C@@H]1C[C@@H](C(=O)N[C@@H]([C@H]2O[C@H](SC)[C@H](O)[C@@H](O)[C@H]2O)[C@H](C)Cl)N(C)C1 [Clindamycin] + COc1cc(Cc2cnc(N)nc2N)cc(OC)c1OC [Trimethoprim]: -0.144
CC(=O)O[C@H]1C[C@@]2(C)[C@@H](C[C@@H](O)[C@H]3[C@@]4(C)CC[C@@H](O)[C@@H](C)[C@@H]4CC[C@@]32C)/C1=C(\CCC=C(C)C)C(=O)O [Fusidic acid] + CN(C)C(=O)C(CCN1CCC(O)(c2ccc(Cl)cc2)CC1)(c1ccccc1)c1ccccc1 [Loperamide]: -0.0873
CCC[C@@H]1C[C@@H](C(=O)N[C@@H]([C@H]2O[C@H](SC)[C@H](O)[C@@H](O)[C@H]2O)[C@@H](C)O)N(C)C1 [Lincomycin] + Cc1ncc([N+](=O)[O-])n1CCO [Metronidazole]: -0.0532
CC(=O)O[C@H]1C[C@@]2(C)[C@@H](C[C@@H](O)[C@H]3[C@@]4(C)CC[C@@H](O)[C@@H](C)[C@@H]4CC[C@@]32C)/C1=C(\CCC=C(C)C)C(=O)O [Fusidic acid] + Cc1cc(NS(=O)(=O)c2ccc(N)cc2)no1 [Sulfamethoxazol]: 0.0933
O=C(N[C@H](CO)[C@H](O)c1ccc([N+](=O)[O-])cc1)C(Cl)Cl [Chloramphenicol] + CN[C@@H]1[C@H](O)[C@H](NC)[C@H]2O[C@@]3(O)C(=O)C[C@@H](C)O[C@H]3O[C@@H]2[C@H]1O [Spectinomycin]: -0.0556
O=C(N[C@H](CO)[C@H](O)c1ccc([N+](=O)[O-])cc1)C(Cl)Cl [Chloramphenicol] + CN1C2=CC=CC=C2N=C3C1=CC=CC3=O [Pyocyanin]: 0.049
CC(=O)O[C@H]1C[C@@]2(C)[C@@H](C[C@@H](O)[C@H]3[C@@]4(C)CC[C@@H](O)[C@@H](C)[C@@H]4CC[C@@]32C)/C1=C(\CCC=C(C)C)C(=O)O [Fusidic acid] + CO[C@@]12[C@H](COC(N)=O)C3=C(C(=O)C(C)=C(N)C3=O)N1C[C@@H]1N[C@@H]12 [MitomycinC]: 0.0298
O=C(O[C@@H]1Cc2c(O)cc(O)cc2O[C@@H]1c1cc(O)c(O)c(O)c1)c1cc(O)c(O)c(O)c1 [EGCG] + CN[C@@H]1[C@H](O)[C@H](NC)[C@H]2O[C@@]3(O)C(=O)C[C@@H](C)O[C@H]3O[C@@H]2[C@H]1O [Spectinomycin]: -0.0513
N[C@@H]1CONC1=O [CycloserineD] + C[C@@H]1O[C@@H]1P(=O)(O)O [Fosfomycin]: -0.046
CC[C@H]1OC(=O)[C@H](C)[C@@H](O[C@H]2C[C@@](C)(OC)[C@@H](O)[C@H](C)O2)[C@H](C)[C@@H](O[C@@H]2O[C@H](C)C[C@H](N(C)C)[C@H]2O)[C@](C)(OC)C[C@@H](C)C(=O)[C@H](C)[C@@H](O)[C@]1(C)O [Clarithromycin] + C[C@H]1c2cccc(O)c2C(=O)C2=C(O)[C@]3(O)C(=O)C(C(N)=O)=C(O)[C@@H](N(C)C)[C@@H]3[C@@H](O)[C@@H]21 [Doxycycline]: -0.324
C[C@@H](O)[C@H]1C(=O)N2C(C(=O)O)=C(SCCNC=N)C[C@H]12 [Imipenem] + CO[C@@]12[C@H](COC(N)=O)C3=C(C(=O)C(C)=C(N)C3=O)N1C[C@@H]1N[C@@H]12 [MitomycinC]: -0.0977
O=C(O[C@@H]1Cc2c(O)cc(O)cc2O[C@@H]1c1cc(O)c(O)c(O)c1)c1cc(O)c(O)c(O)c1 [EGCG] + Cc1cc(NS(=O)(=O)c2ccc(N)cc2)no1 [Sulfamethoxazol]: -0.0762
CC[C@H]1OC(=O)[C@H](C)[C@@H](O[C@H]2C[C@@](C)(OC)[C@@H](O)[C@H](C)O2)[C@H](C)[C@@H](O[C@@H]2O[C@H](C)C[C@H](N(C)C)[C@H]2O)[C@](C)(OC)C[C@@H](C)C(=O)[C@H](C)[C@@H](O)[C@]1(C)O [Clarithromycin] + CC(=O)O[C@H]1C[C@@]2(C)[C@@H](C[C@@H](O)[C@H]3[C@@]4(C)CC[C@@H](O)[C@@H](C)[C@@H]4CC[C@@]32C)/C1=C(\CCC=C(C)C)C(=O)O [Fusidic acid]: -0.059
O=C(O[C@@H]1Cc2c(O)cc(O)cc2O[C@@H]1c1cc(O)c(O)c(O)c1)c1cc(O)c(O)c(O)c1 [EGCG] + C[C@@H]1O[C@@H]1P(=O)(O)O [Fosfomycin]: 0.144
O=C(O[C@@H]1Cc2c(O)cc(O)cc2O[C@@H]1c1cc(O)c(O)c(O)c1)c1cc(O)c(O)c(O)c1 [EGCG] + COc1cc(Cc2cnc(N)nc2N)cc(OC)c1OC [Trimethoprim]: -0.0682
C/C(=C\C(=O)OCCCCCCCCC(=O)O)C[C@@H]1OC[C@H](C[C@@H]2O[C@H]2[C@@H](C)[C@H](C)O)[C@@H](O)[C@H]1O [Pseudomonic acid] + COc1cc(Cc2cnc(N)nc2N)cc(OC)c1OC [Trimethoprim]: 0.0595
